# ASSAY DETAILS: Plasma pharmacokinetics after single oral dose (clinical study Part A)
# Assay type: in vivo, human
# STATED CONDITIONS: both sexes, human; plasma, single oral dose 1000 mg urolithin A, healthy elderly subjects

{"columns": ["MOL", "Cmax [ng/mL]"],
 "data": [
  ["O=c1oc2cc(O)ccc2c2ccc(O)cc12", 1.92]
]}
